- Tested on: MIA PaCa-2
- Protocol: Cytotoxicity against human MIAPaCa2 cells after 7 days by MTT assay
- Assay type: functional
- Condition: Homo sapiens, MIA PaCa-2, 168 h; read-out: ED50 (the source's name)
Recorded EC50 by entry
Measured attribute: EC50 (µg/mL)

| Compound | Measured attribute | Value units | Reported result |
| --- | --- | --- | --- |
| CCCCC[C@H](O)CCCC[C@H](O)[C@H]1CC[C@H]([C@H]2CC[C@H]([C@H](O)CCCC[C@H](O)CCCCCCCC3=C[C@H](C)OC3=O)O2)O1 [PURPURENIN] | EC50 | µg/mL | 1.98 |
| CCCCCCCCCC[C@H](O)[C@H]1CC[C@H]([C@H]2CC[C@H]([C@H](O)CCCC[C@H](O)CCCCC[C@@H](O)CC3=C[C@H](C)OC3=O)O2)O1 [ANNOGLAUCIN] | EC50 | µg/mL | 1.45 |
| CCCCC[C@H](O)[C@H](O)CCC[C@H](O)[C@H]1CC[C@H]([C@H]2CC[C@H]([C@H](O)CCCCCCCCCCCCC3=C[C@H](C)OC3=O)O2)O1 [PURPUREDIOLIN] | EC50 | µg/mL | 1.44 |
| COc1cccc2c1C(=O)c1c(O)c3c(c(O)c1C2=O)C[C@@](O)(C(=O)CO)C[C@@H]3O[C@H]1C[C@H](N)[C@H](O)[C@H](C)O1 [DOXORUBICIN] | EC50 | µg/mL | 0.00145 |
